System Name: Aβ1-42 fibrils (Homo sapiens)
Construct: Synthetic lyophilized human Aβ1-42 peptide; purchased EMC Microcollections, Tuebingen, Germany; host or cells: synthetic peptide
Sequence (P05067 672-713 limits assumed): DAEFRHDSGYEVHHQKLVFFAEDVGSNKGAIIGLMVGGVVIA
Procedure Details: [^3H]PiB competition binding assay on Aβ fibrils
Assay Setup: Aβ1–42 fibrils
Measured Property: competition with [^3H]PiB / binding to Aβ fibrils (in words)

| Molecule | Observed |
| --- | --- |
| Fc1ccc2nc(C=CC=Cc3ccc(N4CCCC4)cc3)sc2c1 [compound 44] | remained low |
| Fc1ccc2nc(C=CC=Cc3ccc(N4CCCCC4)cc3)sc2c1 [compound 43] | remained low |

====

System Name: αSYN fibrils (Homo sapiens, UniProt P37840)
Construct: cloning of the DNA construct encoding full-length αSYN into the pET-22b vector; made in house; host or cells: Escherichia coli BL21
Procedure Details: [^3H]PiB competition binding assay on αSYN fibrils
Assay Setup: Ki-RB2, αSYN [^3H]PiB competition
Measured Property: Ki

Using the record for CN1CCN(c2ccc(C=Cc3sc4ccccc4[n+]3C)cc2)CC1 [RB2, reference compound] , report its Ki.
333 µM

====

System Name: αSYN fibrils (Homo sapiens)
Construct: cloning of the DNA construct encoding full-length αSYN into the pET-22b vector; made in house; host or cells: Escherichia coli BL21
Procedure Details: [^3H]PiB competition binding assay on αSYN fibrils
Assay Setup: nonmethylated compounds, Table 1; two values in a cell = single determinations; a: mean Ki ± SEM of three data points; b: single data point; read-out: Ki
Attribute: Ki
Enter your answer as a number in µM; do not include the unit.

Consider the following illustrative entries.
| Molecule | System Name | Observed |
| --- | --- | --- |
| C(C=Cc1nc2ccccc2s1)=Cc1ccc(N2CCCCC2)cc1 [14a] | αSYN fibrils (Homo sapiens) | 0.0819 |
| Fc1cccc2nc(C=Cc3ccc(N4CCCCC4)cc3)sc12 [12a] | αSYN fibrils (Homo sapiens) | 0.283 |
| FC1CCN(c2ccc(C=Cc3nc4ccccc4s3)cc2)CC1 [18a] | αSYN fibrils (Homo sapiens) | 0.0998 |
| Fc1ccc2nc(C=Cc3ccc(N4CCCCC4)cc3)sc2c1 | αSYN fibrils (Homo sapiens) | 0.0254 |
| C(=Cc1nc2ccccc2s1)c1ccc(N2CCOCC2)cc1 [15a] | αSYN fibrils (Homo sapiens) | 0.092 |

// below: Ki requested for another molecule
Using the record for C(=Cc1nc2ccccc2s1)c1ccc(N2CCCC2)cc1 [17a] , report its Ki.
0.0734

====

System Name: αSYN fibrils (Homo sapiens)
Construct: cloning of the DNA construct encoding full-length αSYN into the pET-22b vector; made in house; host or cells: Escherichia coli BL21
Procedure Details: [^3H]PiB competition binding assay on αSYN fibrils
Assay Setup: Ki, αSYN [^3H]PiB competition, mean Ki ± SEM, n = 3, or single determinations
Measured Property: pKi
Please note pKi is a logarithmic value: minus log10 of concentration in mol/L. Answer with that number alone.

Consider the following illustrative entries.
| Smiles Notation | Observed |
| --- | --- |
| Fc1ccc2nc(C=CC=Cc3ccc(N4CCCCC4)cc3)sc2c1 | 6.67 |
| Fc1ccc2nc(C=CC=Cc3ccc(N4CCCC4)cc3)sc2c1 | 7.07 |

// below: pKi requested for another compound
Using the record for Fc1ccc2nc(C=Cc3ccc(N4CCOCC4)cc3)sc2c1 , report its pKi.
7.99
